- Tested on: NCI-H460 lung
- assay: NCI tumour cell line growth inhibition, 48 h
measurement-kind: TGI

Previously resolved entries follow.
- compound: "CC(C)(CC1(C)NC(=O)NC1=O)OCc1ccccc1 (stereo unspecified)"
  target-desc: "NCI-H460 lung"
  measurement-kind: "TGI"
  result: "> 100 µM"
- compound: "O=C(c1ccccc1)c1ccc2nc3n(c2c1)C(c1c(Cl)cccc1Cl)SC3 (stereo unspecified)"
  target-desc: "NCI-H460 lung"
  measurement-kind: "TGI"
  result: "> 51.9 µM"
- compound: "CO[C@]12C[C@@H](CNC(=O)c3cc(Br)c[nH]3)O[C@H]1NC(=O)N2"
  target-desc: "NCI-H460 lung"
  measurement-kind: "TGI"
  result: "> 100 µM"
- compound: "CCN(CC)Cc1ccc(Nc2c3ccccc3nc3ccccc23)cc1"
  target-desc: "NCI-H460 lung"
  measurement-kind: "TGI"
  result: "3.05 µM"
- compound: "CC(N)=O.[Cl][Pt][Cl].[NH-]c1ccn(C2OC(CO)C(O)C2O)c(=O)n1 (stereo unspecified)"
  target-desc: "NCI-H460 lung"
  measurement-kind: "TGI"
  result: "> 100 µM"

Per the record, "CC(=O)Nc1sccc1S(=O)(=O)c1ccc(Cl)cc1" has TGI of > 100 µM

TGI for "CCN(CC)CCCNc1c2ccc(Cl)cc2nc2ccc(OC)cc12" is 1.34 µM

For reference, reported TGI for "O=S(=O)(O)c1ccc2c(N=Nc3c(O)ccc4ccccc34)cccc2c1" stands at > 100 µM

compound C1CCN2CC3CONC3C2C1 (stereo unspecified) , TGI observed: > 100 µM

# compound "CC(C)C/C(=N\NC(=O)c1ccncc1)c1cc(Cl)ccc1O" ; its TGI = 31.8 µM

Per the record, "Cc1cn2c(/C=C3/C(=O)Nc4ccc(C(=O)O)cc43)c(C)nc2s1" has TGI of > 100 µM
